Biological target: T1, topo VI H2TH-EEE (Methanosarcina mazei, UniProt Q8PUB7;Q8PUB8 1-369;1-621, R263E;K268E;K308E)
T1 sequence 1: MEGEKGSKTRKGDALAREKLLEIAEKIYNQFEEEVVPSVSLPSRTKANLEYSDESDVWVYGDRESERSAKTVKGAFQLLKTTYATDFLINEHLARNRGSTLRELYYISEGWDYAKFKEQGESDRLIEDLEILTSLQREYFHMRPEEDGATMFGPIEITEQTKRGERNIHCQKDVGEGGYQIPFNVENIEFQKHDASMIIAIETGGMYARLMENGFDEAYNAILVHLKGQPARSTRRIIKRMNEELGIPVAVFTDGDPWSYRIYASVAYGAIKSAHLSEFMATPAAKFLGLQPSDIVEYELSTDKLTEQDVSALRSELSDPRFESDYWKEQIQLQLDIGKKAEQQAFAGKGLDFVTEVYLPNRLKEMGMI
T1 sequence 2: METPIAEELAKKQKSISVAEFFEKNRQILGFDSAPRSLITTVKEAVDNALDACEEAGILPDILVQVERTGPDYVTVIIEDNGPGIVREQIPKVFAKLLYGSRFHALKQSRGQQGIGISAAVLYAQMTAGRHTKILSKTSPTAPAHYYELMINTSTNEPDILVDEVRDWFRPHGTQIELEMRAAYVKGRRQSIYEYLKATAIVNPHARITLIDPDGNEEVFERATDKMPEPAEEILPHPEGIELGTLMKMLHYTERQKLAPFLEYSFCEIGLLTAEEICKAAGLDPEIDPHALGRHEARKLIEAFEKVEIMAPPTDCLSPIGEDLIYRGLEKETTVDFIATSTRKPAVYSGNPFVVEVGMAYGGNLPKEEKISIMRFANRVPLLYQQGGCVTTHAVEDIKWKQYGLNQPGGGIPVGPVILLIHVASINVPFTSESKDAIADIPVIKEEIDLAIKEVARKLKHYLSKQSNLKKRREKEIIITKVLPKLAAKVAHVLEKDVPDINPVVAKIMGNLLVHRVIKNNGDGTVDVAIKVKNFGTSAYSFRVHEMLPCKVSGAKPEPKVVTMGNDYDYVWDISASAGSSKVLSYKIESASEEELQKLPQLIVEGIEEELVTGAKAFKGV
Assay: fluorescence anisotropy; Hill h 1.3; FA: 20 nM probe, 50 mM K-glutamate, 20 mM HEPES-KOH pH 7.5, 10 mM MgCl2, 5% glycerol, 1 mM TCEP, 0.1 mg/mL BSA; incubated on ice, read at ambient temperature; competition with 100 nM enzyme
Details: protein: recombinant; tags: N-terminal His6-TEV on Top6B, removed; chain copies: 2;2; label: 5'-FAM strand 1; blunt
MEASURED METRIC: pKd
# reply with the number alone; pKd is -log10 of concentration in mol/L

The binder identified as 30 bp duplex (dsDNA) DNA 1: CAAAAAGGAAGAGTATGAGTATTCAACATC DNA 2: GATGTTGAATACTCATACTCTTCCTTTTTG registered its pKd at 7.03

These measurements were taken from paper PMC5922973.
